Test system: Vero E6
assay-details: cell viability relative to DMSO; higher = less toxic
condition-set: 72 h; 1 nM
Measured cell viability, listed per entry for reference.
Number in %, nothing else.

Known cell viability results, listed for orientation:
1) CN[C@@H](C)C(=O)N[C@H](C(=O)N1CCC[C@H]1c1nc(C(=O)c2ccc(F)cc2)cs1)C1CCCCC1 | 97.8
2) C[C@@H](O)[C@H](N)C(=O)N1CCC[C@H]1C(=O)N1CCC[C@H]1C(=O)N[C@H](C(N)=O)[C@@H](C)O | 97.6
3) CC(C)[N+](C)(CCC(C(N)=O)(c1ccccc1)c1ccccc1)C(C)C [isopropamide-iodide] | 102
4) CCc1cccc2c3c([nH]c12)C(CC)(CC(=O)O)OCC3 (configuration not stated) | 91.7

QUERY: Provide measured cell viability value, entry: "CCCC(CCC)C(=O)NCc1ccc2c(cnn2-c2ccccc2OC)c1"
RESULT: 94.5

QUERY: Provide measured cell viability value, entry: "CC/C(=C(/CC)c1ccc(OP(=O)(O)O)cc1)c1ccc(OP(=O)(O)O)cc1"
RESULT: 94.2

QUERY: Provide measured cell viability value, entry: "O=C(CCc1ccc(O)cc1)c1c(O)cc(O)cc1O[C@@H]1O[C@H](CO)[C@@H](O)[C@H](O)[C@H]1O"
RESULT: 96.4

---

Test system: Caco-2
assay-details: drug sensitivity score (DSS) for viability; higher = more toxic; extreme values may be limits of the assay
condition-set: 72 h
Each entry gets condition not met if its drug sensitivity score stays under 0.3, and condition met if its drug sensitivity score is 0.3 or above.

1) CO[C@@H]1[C@@H](O[C@@H]2O[C@H](C)[C@@H](O[C@H]3C[C@@](C)(O)[C@@H](OC(=O)CC(C)C)[C@H](C)O3)[C@H](N(C)C)[C@H]2O)[C@@H](CC=O)C[C@@H](C)[C@@H](O)/C=C/C=C/C[C@@H](C)OC(=O)C[C@H]1OC(C)=O [josamycin] | condition met
2) CCC1(C)CC(=O)NC(=O)C1 [bemegride] | condition not met
3) CCCCCN(C)CCC(O)(P(=O)(O)O)P(=O)(O)O [ibandronate] | condition not met
4) CCCCc1nc(Cl)c(C(=O)O)n1Cc1ccc(-c2ccccc2-c2nn[nH]n2)cc1 [carboxylosartan] | condition not met
5) N#C/C(=C\c1ccc(O)c(O)c1)C(=O)NCc1ccccc1 [AG-490] | condition met
6) O=C(CCCN1CCC(O)(c2ccc(Cl)cc2)CC1)c1ccc(F)cc1 [haloperidol] | condition not met
7) O=C1NN(C(=O)Nc2ccc(Br)cc2)[C@@H](c2ccccc2)[C@@H]1c1ccccc1 | condition not met
8) O=c1[nH]c(=O)n([C@H]2C[C@H](O)[C@@H](CO)O2)cc1Br [broxuridine] | condition not met

QUERY: Is drug sensitivity score at least 0.3? Consider CC(C)(C)c1ccc(C(=O)CCCN2CCC(OC(c3ccccc3)c3ccccc3)CC2)cc1 [ebastine]
RESULT: condition met

QUERY: Is drug sensitivity score at least 0.3? Consider CC(=O)c1ccc2c(c1)N(CCCN(C)C)c1ccccc1S2 [acepromazine]
RESULT: condition not met

QUERY: Is drug sensitivity score at least 0.3? Consider c1cc2c3c(c1)c1c(n3CCNC2)CCCC1 [WAY-629]
RESULT: condition not met

QUERY: Is drug sensitivity score at least 0.3? Consider CCc1cccc2c3c([nH]c12)C(CC)(CC(=O)O)OCC3 (configuration not stated) [etodolac]
RESULT: condition not met

QUERY: Is drug sensitivity score at least 0.3? Consider C[C@H](Oc1cc(-c2cnn(C3CCNCC3)c2)cnc1N)c1c(Cl)ccc(F)c1Cl [crizotinib-(S)]
RESULT: condition met

QUERY: Is drug sensitivity score at least 0.3? Consider CN(C)CCC(c1ccc(Br)cc1)c1ccccn1 (configuration not stated) [brompheniramine]
RESULT: condition not met
